- measured.target: human 3β-HSD1
- Sequence (P14060 2-373 limits assumed): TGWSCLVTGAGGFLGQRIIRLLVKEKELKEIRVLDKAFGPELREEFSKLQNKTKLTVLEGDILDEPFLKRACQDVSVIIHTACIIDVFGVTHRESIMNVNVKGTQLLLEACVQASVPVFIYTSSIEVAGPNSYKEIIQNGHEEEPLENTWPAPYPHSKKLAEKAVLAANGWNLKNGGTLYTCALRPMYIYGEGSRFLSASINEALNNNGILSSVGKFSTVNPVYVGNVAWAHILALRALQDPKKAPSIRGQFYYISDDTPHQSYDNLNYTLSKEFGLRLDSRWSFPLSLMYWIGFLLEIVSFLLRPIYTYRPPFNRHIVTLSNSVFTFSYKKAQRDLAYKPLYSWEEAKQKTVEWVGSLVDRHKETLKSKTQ
- method.description: 3β-HSD1 inhibition, colorimetric NADH detection assay
- Assay type: biochemical
- assay.setup: purified recombinant human 3β-HSD1, 50 μM DHEA, 2 mM NAD+, 1 hour, room temperature, duplicate 10-point CRC; read-out: IC50 (nM), in vitro NADH inhibition
endpoint.label: IC50 (nM)

• CC1(C)CCc2nc(-c3ccc(O)c(F)c3)ncc2C1=O [Compound 84] = 288
• Cc1cc(-c2ccc3c(n2)CCC(C)(C)C3=O)c(F)c(F)c1O [Compound 81] = 326
• CCC1(CC)CCc2nc(-c3cc(F)c(O)c(F)c3)ccc2C1=O [Compound 59] = 71
